Hi there, I'd appreciate the recorded 8OG:A repair function score for every entry that follows.
B1: library; numbered along this chain (parent)
chain: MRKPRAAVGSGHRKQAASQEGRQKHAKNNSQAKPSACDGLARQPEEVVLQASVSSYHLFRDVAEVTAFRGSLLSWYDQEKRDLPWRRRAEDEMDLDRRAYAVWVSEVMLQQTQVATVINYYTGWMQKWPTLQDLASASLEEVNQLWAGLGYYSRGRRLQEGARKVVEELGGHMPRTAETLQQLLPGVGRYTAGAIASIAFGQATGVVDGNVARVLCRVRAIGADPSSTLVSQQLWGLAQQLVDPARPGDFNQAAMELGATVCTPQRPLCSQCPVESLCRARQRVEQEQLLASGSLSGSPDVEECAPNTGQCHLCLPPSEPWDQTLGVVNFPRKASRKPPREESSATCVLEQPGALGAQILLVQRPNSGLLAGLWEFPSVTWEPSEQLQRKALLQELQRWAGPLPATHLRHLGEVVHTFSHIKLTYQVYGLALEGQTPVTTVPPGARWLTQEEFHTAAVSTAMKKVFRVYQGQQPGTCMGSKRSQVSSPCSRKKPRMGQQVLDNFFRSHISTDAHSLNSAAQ

# Variants of: B1
# protocol notes: 8OG:A repair function score (normalized; synonymous = 0, nonsense = -1) (normalized log-likelihood score); higher = more repair activity (WT-like);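 also: cells sorted at 72 h after reporter transfection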
# conditions used: with 8OG:A DNA repair reporter (GFP) in HEK-293 MUTYH KO cells
Reply briefly: the number, and no unit.

Ask: Any idea what its 8OG:A repair function score is? The variant is L393M
Result: 0.297

Ask: Any idea what its 8OG:A repair function score is? The variant is W103L
Result: -0.377

Ask: Any idea what its 8OG:A repair function score is? The variant is A461M
Result: -0.276

Ask: Any idea what its 8OG:A repair function score is? The variant is L373Q
Result: -0.26

Ask: Any idea what its 8OG:A repair function score is? The variant is L432I
Result: -0.208

Ask: Any idea what its 8OG:A repair function score is? The variant is R398K
Result: -0.0169

Ask: Any idea what its 8OG:A repair function score is? The variant is A354C
Result: -0.078

Ask: Any idea what its 8OG:A repair function score is? The variant is A67I
Result: -0.0242

Ask: Any idea what its 8OG:A repair function score is? The variant is T436R
Result: -0.124

Ask: Any idea what its 8OG:A repair function score is? The variant is G297E
Result: -0.0194

Ask: Any idea what its 8OG:A repair function score is? The variant is M496I
Result: -0.0358

Ask: Any idea what its 8OG:A repair function score is? The variant is A63Y
Result: -0.056

Ask: Any idea what its 8OG:A repair function score is? The variant is E452C
Result: -0.0884

Ask: Any idea what its 8OG:A repair function score is? The variant is A194M
Result: -0.32

Ask: Any idea what its 8OG:A repair function score is? The variant is V327C
Result: -0.201

Ask: Any idea what its 8OG:A repair function score is? The variant is Q288R
Result: -0.00978

Ask: Any idea what its 8OG:A repair function score is? The variant is P377Q
Result: -0.969

Ask: Any idea what its 8OG:A repair function score is? The variant is V114K
Result: -0.435

Ask: Any idea what its 8OG:A repair function score is? The variant is N210E
Result: -0.997

Ask: Any idea what its 8OG:A repair function score is? The variant is E106T
Result: -1.01

Ask: Any idea what its 8OG:A repair function score is? The variant is S480V
Result: 0.00525

Ask: Any idea what its 8OG:A repair function score is? The variant is Y76H
Result: -0.27

Just for reference, the supplement of paper PMC11908140 is where these values come from.
